tested on: Hepatotoxicity; assay: FDA HLAED, lactate dehydrogenase (LDH) increase; details: human
reported-endpoint: LDH Increase - Activity Score

Here is how some compounds turned out for LDH Increase - Activity Score.
compound	LDH Increase - Activity Score
CO/N=C(\C(=O)N[C@@H]1C(=O)N2C(C(=O)OC(C)OC(C)=O)=C(COC(N)=O)CS[C@H]12)c1ccco1 (some centres not stated)	Inactive
N[C@@H](C(=O)N[C@@H]1C(=O)N2C(C(=O)O)=C(Cl)CS[C@H]12)c1ccccc1 [CEFACLOR ANHYDROUS]	Inactive
C[N+](C)(C)C[C@H](O)CC(=O)[O-]	Inactive
Cc1cn([C@H]2C=C[C@@H](CO)O2)c(=O)[nH]c1=O	Inactive
N[C@@H](C(=O)N[C@@H]1C(=O)N2C(C(=O)O)=C(Cl)CC[C@H]12)c1ccccc1 [LORACARBEF ANHYDROUS]	Inactive
COCC1=C(C(=O)O)N2C(=O)[C@@H](NC(=O)/C(=N\OC)c3csc(N)n3)[C@H]2SC1	Inactive
Cc1ncc2n1-c1ccc(Cl)cc1C(c1ccccc1F)=NC2	Inactive
Cc1ccc(C)c(OCCCC(C)(C)C(=O)O)c1	Inactive
CNCCC(Oc1ccc(C(F)(F)F)cc1)c1ccccc1 (configuration not stated)	Marginally Active
O=c1[nH]cnc2c1ncn2[C@H]1CC[C@@H](CO)O1	Marginally Active

Task item: Lookup: LDH Increase - Activity Score / Hepatotoxicity / COc1ccc(C(=O)Nc2ccccc2CCC2CCCCN2C)cc1 (configuration not stated) [ENCAINIDE]
Reply: Active

Task item: And the next one, CCC1=C(C)CN(C(=O)NCCc2ccc(S(=O)(=O)NC(=O)N[C@H]3CC[C@H](C)CC3)cc2)C1=O [GLIMEPIRIDE] ?
Reply: Inactive

Task item: And the next one, `CC[C@H]1OC(=O)[C@H](C)[C@@H](O[C@H]2C[C@@](C)(OC)[C@@H](O)[C@H](C)O2)[C@H](C)[C@@H](O[C@@H]2O[C@H](C)C[C@H](N(C)C)[C@H]2O)[C@](C)(OC)C[C@@H](C)C(=O)[C@H](C)[C@@H](O)[C@]1(C)O` ?
Reply: Inactive

The reported numbers originate from ChEMBL document CHEMBL1697781.
